The following compounds are shown together with reported LC50 values.
test system: TK-10; assay: Anticancer activity against human TK10 cells after 48 hrs; format: functional; conditions: TK-10, 48 h

Below, 3 compounds whose answers are already recorded.
>>> result("COc1ccc(C2CC(c3cc(Cl)c(C)cc3O)=NN2c2ccc(S(N)(=O)=O)cc2)cc1OC (centres undefined)")
"> 100 µM"
>>> result("Cc1cc(O)c(C2=NN(c3ccc(S(N)(=O)=O)cc3)C(/C=C/c3ccccc3)C2)cc1Cl (centres undefined)")
"60.7 µM"
>>> result("Cc1cc(O)c(C2=NN(c3ccc(S(N)(=O)=O)cc3)C(c3ccccc3O)C2)cc1Cl (centres undefined)")
"27.2 µM"

We now examine a further compound.
Task: Report measured LC50; entry is Cc1cc(O)c(C2=NN(c3ccc(S(N)(=O)=O)cc3)C(c3ccccc3Cl)C2)cc1Cl (centres undefined)
Output: 33.9 µM

====

tested on: MCF7; experiment: Anticancer activity against human MCF7 cells after 48 hrs; assay type: functional; settings: MCF7, 48 h
Assay Metric: GI50 (nM)
Report the figure in nM without appending any unit label.

>>> recorded_number("Cc1cc(O)c(C2=NN(c3ccc(S(N)(=O)=O)cc3)C(c3ccccc3Cl)C2)cc1Cl (centres undefined)")
1750

Task: Give GI50 for the following molecule: COc1ccc(C2CC(c3cc(Cl)c(C)cc3O)=NN2c2ccc(S(N)(=O)=O)cc2)cc1OC (centres undefined)
Output: 3070

Task: Entry Cc1cc(O)c(C2=NN(c3ccc(S(N)(=O)=O)cc3)C(c3ccccc3O)C2)cc1Cl (centres undefined) needs its GI50 filled in; supply it.
Output: 2660

Task: Tell me its GI50 given Cc1cc(O)c(C2=NN(c3ccc(S(N)(=O)=O)cc3)C(/C=C/c3ccccc3)C2)cc1Cl (centres undefined) as the entry.
Output: 3930

====

test system: NCI-H322M; assay: Anticancer activity against human NCI-H322M cells after 48 hrs; format: functional
Reported GI50 values are given for each entry in this list.
Field format: number, assumed µM, no unit text.

>>> recorded_number("Cc1cc(O)c(C2=NN(c3ccc(S(N)(=O)=O)cc3)C(c3ccccc3Cl)C2)cc1Cl (centres undefined)")
2.19
>>> recorded_number("Cc1cc(O)c(C2=NN(c3ccc(S(N)(=O)=O)cc3)C(c3ccccc3O)C2)cc1Cl (centres undefined)")
2.5
>>> recorded_number("Cc1cc(O)c(C2=NN(c3ccc(S(N)(=O)=O)cc3)C(/C=C/c3ccccc3)C2)cc1Cl (centres undefined)")
5.73

Now look at this entry.
Task: Report measured GI50; entry is COc1ccc(C2CC(c3cc(Cl)c(C)cc3O)=NN2c2ccc(S(N)(=O)=O)cc2)cc1OC (centres undefined)
Output: 4.45

====

As shown below, each of these compounds has a reported TGI value.
system: RXF 393; assay: Anticancer activity against human RXF393 cells after 48 hrs; type: functional; settings: RXF 393, 48 h
Output should be the measured figure followed by the unit it is expressed in.

>>> result("Cc1cc(O)c(C2=NN(c3ccc(S(N)(=O)=O)cc3)C(c3ccccc3Cl)C2)cc1Cl (centres undefined)")
"8.22 µM"

Task: Please look at COc1ccc(C2CC(c3cc(Cl)c(C)cc3O)=NN2c2ccc(S(N)(=O)=O)cc2)cc1OC (centres undefined) and tell me its recorded TGI on RXF 393.
Output: 7.52 µM

Task: Please indicate recorded TGI of Cc1cc(O)c(C2=NN(c3ccc(S(N)(=O)=O)cc3)C(c3ccccc3O)C2)cc1Cl (centres undefined) measured with RXF 393.
Output: 13 µM

Task: # lookup: RXF 393 TGI, key = Cc1cc(O)c(C2=NN(c3ccc(S(N)(=O)=O)cc3)C(/C=C/c3ccccc3)C2)cc1Cl (centres undefined)
Output: 20.2 µM

====

Here, each record is paired with measured TGI data.
system: SK-MEL-5; assay: Anticancer activity against human SK-MEL-5 cells after 48 hrs; format: functional; conditions: SK-MEL-5, 48 h
Unit µM implied. Number only.

Known results for compounds:
>>> recorded_number("Cc1cc(O)c(C2=NN(c3ccc(S(N)(=O)=O)cc3)C(/C=C/c3ccccc3)C2)cc1Cl (centres undefined)")
16.4
>>> recorded_number("Cc1cc(O)c(C2=NN(c3ccc(S(N)(=O)=O)cc3)C(c3ccccc3O)C2)cc1Cl (centres undefined)")
18.2
>>> recorded_number("Cc1cc(O)c(C2=NN(c3ccc(S(N)(=O)=O)cc3)C(c3ccccc3Cl)C2)cc1Cl (centres undefined)")
12.3

Task: Annotate the compound COc1ccc(C2CC(c3cc(Cl)c(C)cc3O)=NN2c2ccc(S(N)(=O)=O)cc2)cc1OC (centres undefined) with its measured TGI.
Output: 15.2

====

system: NCI/ADR-RES; test: Anticancer activity against human NCI/ADR-RES cells after 48 hrs; assay type: functional
Assay Metric: TGI
Please make sure the unit comes right after the number.

>>> result("COc1ccc(C2CC(c3cc(Cl)c(C)cc3O)=NN2c2ccc(S(N)(=O)=O)cc2)cc1OC (centres undefined)")
"14.1 µM"
>>> result("Cc1cc(O)c(C2=NN(c3ccc(S(N)(=O)=O)cc3)C(c3ccccc3O)C2)cc1Cl (centres undefined)")
"14.1 µM"
>>> result("Cc1cc(O)c(C2=NN(c3ccc(S(N)(=O)=O)cc3)C(/C=C/c3ccccc3)C2)cc1Cl (centres undefined)")
"22.7 µM"

Let's switch to this compound now.
Task: Determine its reported TGI: Cc1cc(O)c(C2=NN(c3ccc(S(N)(=O)=O)cc3)C(c3ccccc3Cl)C2)cc1Cl (centres undefined)
Output: 6.85 µM

====

tested on: OVCAR-3; assay: Anticancer activity against human OVCAR3 cells after 48 hrs; assay type: functional; details: OVCAR-3, 48 h
Assay Metric: TGI (µM)
Please reply with the bare figure in µM and do not write the unit itself.

Check out these entries, answers already filled in.
>>> recorded_number("Cc1cc(O)c(C2=NN(c3ccc(S(N)(=O)=O)cc3)C(/C=C/c3ccccc3)C2)cc1Cl (centres undefined)")
28.4
>>> recorded_number("Cc1cc(O)c(C2=NN(c3ccc(S(N)(=O)=O)cc3)C(c3ccccc3Cl)C2)cc1Cl (centres undefined)")
3.58
>>> recorded_number("Cc1cc(O)c(C2=NN(c3ccc(S(N)(=O)=O)cc3)C(c3ccccc3O)C2)cc1Cl (centres undefined)")
3.73

Kindly consider the entry below.
Task: Input COc1ccc(C2CC(c3cc(Cl)c(C)cc3O)=NN2c2ccc(S(N)(=O)=O)cc2)cc1OC (centres undefined) , output reported TGI.
Output: 9.8

====

tested on: HL-60(TB); test: Anticancer activity against human HL-60(TB) cells after 48 hrs; type: functional; conditions: HL-60, 48 h
Assay Metric: LC50

Record excerpt, results attached:
>>> result("Cc1cc(O)c(C2=NN(c3ccc(S(N)(=O)=O)cc3)C(c3ccccc3Cl)C2)cc1Cl (centres undefined)")
"> 100 µM"
>>> result("COc1ccc(C2CC(c3cc(Cl)c(C)cc3O)=NN2c2ccc(S(N)(=O)=O)cc2)cc1OC (centres undefined)")
"> 100 µM"
>>> result("Cc1cc(O)c(C2=NN(c3ccc(S(N)(=O)=O)cc3)C(/C=C/c3ccccc3)C2)cc1Cl (centres undefined)")
"> 100 µM"

Consider the additional compound presented here.
Task: Look up and report measured LC50 for this entry: Cc1cc(O)c(C2=NN(c3ccc(S(N)(=O)=O)cc3)C(c3ccccc3O)C2)cc1Cl (centres undefined)
Output: > 100 µM

====

test system: RPMI-8226; test: Anticancer activity against human RPMI8226 cells after 48 hrs; format: functional; details: RPMI-8226, 48 h
Assay Metric: GI50 (µM)
Answer format: numeric, µM implied, no suffix.

Example results:
>>> recorded_number("Cc1cc(O)c(C2=NN(c3ccc(S(N)(=O)=O)cc3)C(c3ccccc3Cl)C2)cc1Cl (centres undefined)")
2.97
>>> recorded_number("Cc1cc(O)c(C2=NN(c3ccc(S(N)(=O)=O)cc3)C(/C=C/c3ccccc3)C2)cc1Cl (centres undefined)")
4.95
>>> recorded_number("Cc1cc(O)c(C2=NN(c3ccc(S(N)(=O)=O)cc3)C(c3ccccc3O)C2)cc1Cl (centres undefined)")
2.39

Let us move to another entry and its GI50.
Task: Identify measured GI50 corresponding to COc1ccc(C2CC(c3cc(Cl)c(C)cc3O)=NN2c2ccc(S(N)(=O)=O)cc2)cc1OC (centres undefined)
Output: 4.1

====

system: MDA-MB-468; assay: Anticancer activity against human MDA-MB-468 cells after 48 hrs; type: functional; conditions: MDA-MB-468, 48 h, read-out: LC50 (the source's name)
Assay Metric: CC50 (µM)
Report only the number, with the unit µM understood.

>>> recorded_number("Cc1cc(O)c(C2=NN(c3ccc(S(N)(=O)=O)cc3)C(c3ccccc3O)C2)cc1Cl (centres undefined)")
37.6

# context switch: different compound, same CC50
Task: Give the reported CC50 for this compound. Cc1cc(O)c(C2=NN(c3ccc(S(N)(=O)=O)cc3)C(/C=C/c3ccccc3)C2)cc1Cl (centres undefined)
Output: 37.2

# credit: ChEMBL document CHEMBL1914430
